Target: Torsin-1A (Homo sapiens) (UniProt O14656)
Sequence (O14656 whole entry, looked up): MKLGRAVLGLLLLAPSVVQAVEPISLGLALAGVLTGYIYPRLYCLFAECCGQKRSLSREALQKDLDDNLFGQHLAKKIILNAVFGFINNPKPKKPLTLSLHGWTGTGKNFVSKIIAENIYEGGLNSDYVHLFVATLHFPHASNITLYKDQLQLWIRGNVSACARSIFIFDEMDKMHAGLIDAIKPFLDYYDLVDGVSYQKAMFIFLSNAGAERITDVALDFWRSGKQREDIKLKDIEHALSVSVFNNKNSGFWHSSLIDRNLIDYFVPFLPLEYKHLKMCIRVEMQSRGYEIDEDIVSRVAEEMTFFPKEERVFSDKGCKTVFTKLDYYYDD
Assay: small-molecule binders of mutant TOR1A in lysate, primary screen, cell lysate, small-molecule microarray, COS7 lysate, 635/667 nm fluorescence (AID 1150);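 also: score pools 667 nm emission and signal to noise measuring lysate protein binding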
Conditions: COS7 hTOR1A mutant lysate, 635 nm fluorescence, higher = more signal
parameter.measured: composite z-score

compound=CC(C)=CCCC(C)=CCON=C1C[C@@H](O)[C@@H](O)[C@@H]2[C@@H]3C(=O)N(Cc4ccccc4)C(=O)[C@@H]3CC[C@@H]12 test_system="Torsin-1A (Homo sapiens) (UniProt O14656)" measured=0.293
compound=CO[C@H]1COC(=O)[C@@H](Cc2ccccc2)NC(=O)[C@@H](C)COC(=O)CCC[C@@H]1C test_system="Torsin-1A (Homo sapiens) (UniProt O14656)" measured=0.187
compound=COC(=O)CC=C[C@@H](C)[C@@H](C=NOC[C@H]1O[C@H](c2ccccc2)C=C[C@@H]1Oc1ccc(OC)cc1)NS(=O)(=O)c1ccc(C)cc1 test_system="Torsin-1A (Homo sapiens) (UniProt O14656)" measured=0.339
compound="CC(CCN1CCCc2nc(C)c(C)cc21)=NOC(C)CN1CCCCc2nc(C)c(C)cc21 (stereo not drawn)" test_system="Torsin-1A (Homo sapiens) (UniProt O14656)" measured=0.631
compound=CCOC(=O)C1=NO[C@@]2(C=C(Br)C3(OCCCO3)[C@H]3O[C@H]32)C1 test_system="Torsin-1A (Homo sapiens) (UniProt O14656)" measured=0.332
compound=CCO[C@H](c1cc(OC)cc([N+](=O)[O-])c1OC)[C@H](C)C=CCC(=O)OC test_system="Torsin-1A (Homo sapiens) (UniProt O14656)" measured=0.192
compound=O=C1C[C@@H](O)[C@@H](O)[C@@H]2[C@@H]3C(=O)N(Cc4ccccc4)C(=O)[C@@H]3CC[C@@H]12 test_system="Torsin-1A (Homo sapiens) (UniProt O14656)" measured=0.35
compound=O=C1[C@H]2[C@H]3[C@H](O)[C@H](O)CC(=NO[C@@H]4O[C@H](CO)[C@@H](O)[C@H](O)[C@H]4O)[C@H]3CC[C@H]2C(=O)N1c1cccc(Oc2ccccc2)c1 test_system="Torsin-1A (Homo sapiens) (UniProt O14656)" measured=0.367

----------
Assay: MM1S myeloma cell viability, profiling panel, resazurin fluorescence, basal, 24 h, PK04 Diversity Set (AID 1174);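 also: MM1S multiple myeloma cell line; test concentration not given here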
Conditions: higher = more signal, called active from +8 up or from −8 down
Given measured z-score, output TRUE if it is greater than or equal to -0.1 and FALSE if not.

molecule=CC(C)(C)N1C(=O)[C@H]2[C@H]3[C@H](O)[C@H](O)CC(=O)[C@H]3CC[C@H]2C1=O class=TRUE
molecule=COc1cccc([C@H]2Oc3ccc(OC)cc3C(=NO[C@H](C)c3cn([C@H](CO)Cc4ccccc4)nn3)[C@@H]2O)c1 class=FALSE
molecule=C#CCCCON=C1[C@H]2CCn3c(=O)n(C)c(=O)n3[C@H]2[C@H](O)[C@@H]2O[C@H]12 class=FALSE
molecule=CC(C)CON=C1C[C@@H](O)[C@@H](O)[C@@H]2[C@@H]3C(=O)N(Cc4ccc5c(c4)OCO5)C(=O)[C@@H]3CC[C@H]12 class=FALSE
molecule="COCCNC(=O)OCC1CCCC2(CC(OC(=O)NCc3ccc4c(c3)OCO4)CC(CCC(=O)N[C@@H](C)C(=O)OC)O2)O1 (stereo not given in full)" class=TRUE
molecule=C=CC[C@@H]1C=C[C@H](ON=C2[C@H]3CCn4c(=O)n(-c5ccccc5)c(=O)n4[C@H]3[C@H](O)[C@@H]3O[C@H]23)[C@@H](CO)O1 class=FALSE
molecule=COCOc1ccc(Br)cc1C(=O)[C@@H]1O[C@H]1c1cccc(OC)c1 class=FALSE
molecule=Cn1c(=O)n2n(c1=O)[C@H]1[C@H](O)[C@@H]3O[C@@H]3C(=NOCc3ccccc3)[C@H]1CC2 class=FALSE
molecule=C#CCCCON=C1C[C@@H](O)[C@@H](O)[C@@H]2[C@@H]3C(=O)N(c4ccc(F)cc4F)C(=O)[C@@H]3CC[C@@H]12 class=TRUE
molecule=C[C@H]1Cc2c(COc3ccccc3)nc3c(c2CO1)CN(CCOc1ccccc1)CC3 class=TRUE
molecule="CCOC(=O)[C@H](CC(C)C)NC(=O)CCC1CC(OC(=O)NCc2ccc3c(c2)OCO3)CC2(CCCC(COC(=O)NCCCN3CCCC3=O)O2)O1 (stereo not given in full)" class=TRUE
molecule=CCN1C(=O)[C@H]2[C@H]3[C@H](O)[C@H](O)CC(=O)[C@H]3CC[C@H]2C1=O class=FALSE
molecule=CC(C)CON=C1C[C@@H](O)[C@@H](O)[C@@H]2[C@@H]3C(=O)N(C4CCCCC4)C(=O)[C@@H]3CC[C@@H]12 class=TRUE
molecule=O=C(C=Cc1ccc2c(c1)OCO2)c1ccc(F)cc1 class=FALSE
molecule=COC(=O)CC=C[C@@H](C)[C@@H](C=NO[C@@H](C)c1cc(-c2c(C)cc(C)cc2C)no1)NS(=O)(=O)c1ccc(C)cc1 class=TRUE
molecule="COC(=O)[C@H](C)NC(=O)CCC1CC(OC(=O)NCCc2ccc(F)cc2)CC2(CCCC(COC(=O)NCCC(C)C)O2)O1 (stereo not given in full)" class=TRUE
molecule=CC(C)=CCCC(C)=CCON=C1C[C@@H](O)[C@@H](O)[C@@H]2[C@@H]3C(=O)N(C4CCCCC4)C(=O)[C@@H]3CC[C@@H]12 class=FALSE
molecule=CCOC(=O)C1=NO[C@@]2(C=C(Br)C3(OCCCO3)[C@H]3O[C@H]32)C1 class=FALSE
molecule="COC(=O)[C@H](C)NC(=O)CCC1CC(OC(=O)NCCc2ccc(F)cc2)CC2(CCCC(COC(=O)NCc3cccc(C(F)(F)F)c3)O2)O1 (stereo not given in full)" class=TRUE
molecule=CO[C@H]1COC(=O)[C@@H](Cc2ccccc2)NC(=O)[C@@H](C)COC(=O)CCC[C@@H]1C class=TRUE
molecule=COc1ccc(O[C@H]2C=C[C@@H](c3ccccc3)O[C@@H]2CON=C2[C@H]3CCn4c(=O)n(-c5ccccc5)c(=O)n4[C@H]3[C@H](O)[C@@H]3O[C@H]23)cc1 class=FALSE
molecule=CC(C)CON=C1C[C@@H](O)[C@@H](O)[C@@H]2[C@@H]3C(=O)N(c4cccc(Oc5ccccc5)c4)C(=O)[C@@H]3CC[C@@H]12 class=FALSE
molecule=CCN1C(=O)[C@H]2[C@H]3[C@H](O)[C@H](O)CC(=NOCC(C)C)[C@@H]3CC[C@H]2C1=O class=FALSE
molecule=CC(C)(C)N1C(=O)[C@H]2[C@H]3[C@H](O)[C@H](O)CC(=O)[C@@H]3CC[C@H]2C1=O class=TRUE
molecule=Cc1cc2c(nc1C)CCCN2CC(O)CN1CCCc2nc(C)c(C)cc21 class=FALSE
molecule="Cc1cc2c(nc1C)CCCCN2CC(C)ON=C[C@@H](C)[C@H](OCc1ccccc1)C(C)C (stereo not given in full)" class=TRUE
molecule="CCOC(=O)[C@H](Cc1ccccc1)NC(=O)CCC1CC(OC(=O)NCCc2ccc(F)cc2)CC2(CCCC(COC(=O)NCCc3ccc(Cl)cc3)O2)O1 (stereo not given in full)" class=TRUE
molecule="CCOC(=O)[C@H](CC(C)C)NC(=O)CCC1CC(OC(=O)NCc2ccc3c(c2)OCO3)CC2(CCCC(COC(=O)NCC3CCCCC3)O2)O1 (stereo not given in full)" class=TRUE
molecule=O=C1[C@H]2[C@H]3[C@H](O)[C@H](O)CC(=NOCc4ccccc4)[C@@H]3CC[C@H]2C(=O)N1C[C@@H]1CCCO1 class=TRUE
molecule="CCOC(=O)[C@H](Cc1ccccc1)NC(=O)CCC1CC(OC(=O)NCc2ccc3c(c2)OCO3)CC2(CCCC(COC(=O)NCCc3ccccc3OC)O2)O1 (stereo not given in full)" class=FALSE
